Values from ChEMBL document CHEMBL1795211

# test_system: L-cysteine:1D-myo-inositol 2-amino-2-deoxy-alpha-D-glucopyranoside ligase (Mycobacterium tuberculosis)
# Sequence (P9WJM9 whole entry): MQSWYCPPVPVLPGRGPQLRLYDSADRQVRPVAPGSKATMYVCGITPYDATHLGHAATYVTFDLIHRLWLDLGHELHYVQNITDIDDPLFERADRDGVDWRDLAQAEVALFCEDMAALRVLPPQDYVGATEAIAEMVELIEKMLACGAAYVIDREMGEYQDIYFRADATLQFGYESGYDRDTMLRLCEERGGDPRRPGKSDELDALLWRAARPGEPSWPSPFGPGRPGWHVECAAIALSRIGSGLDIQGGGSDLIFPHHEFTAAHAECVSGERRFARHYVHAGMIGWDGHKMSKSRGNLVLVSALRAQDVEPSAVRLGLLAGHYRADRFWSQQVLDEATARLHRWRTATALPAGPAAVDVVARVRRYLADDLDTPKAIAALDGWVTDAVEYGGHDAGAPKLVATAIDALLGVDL
# method_notes: Inhibition of Mycobacterium tuberculosis recombinant MshC assessed as production of Cys-GlcN-Ins from cysteine by HPLC based fluorescence assay
Catalogue of molecules with associated pIC50
Units for pIC50: none; it is -log10 of a concentration expressed in mol/L.

# annotated cases, reported pIC50 shown
> print(dat)
                                   molecule  measurement.label  observed.result
1  CN(CCCNC(=O)c1ccc2c(c1)N(Cc1ccccc1)C(=O)c1ccccc1[S+]2[O-])C1CCCCC1 (racemic)              pIC50             3.52
2  O=C(NCCCN1CCCC1)c1ccc2c(c1)N(Cc1cccc(Cl)c1)C(=O)c1ccccc1[S+]2[O-] (racemic)              pIC50             4.00
3  CN(CCCNC(=O)c1ccc2c(c1)N(Cc1ccc(Cl)cc1)C(=O)c1ccccc1S2(=O)=O)C1CCCCC1              pIC50             3.48
4  O=C(NCCN1CCCCCC1)c1ccc2c(c1)N(Cc1cccc(Cl)c1)C(=O)c1ccccc1[S+]2[O-] (racemic)              pIC50             4.00

Now look at this one.
CCCCN(C)CCCNC(=O)c1ccc2c(c1)N(Cc1cccc(Cl)c1)C(=O)c1ccccc1[S+]2[O-] (racemic) has a reported pIC50 of 3.96
